# TARGET UNDER TEST: KRas-mediated phosphorylation of ERK in A549 cells (Homo sapiens, UniProt P01116, G12S)
# Construct: pERK HTRF read-out
# Sequence (P01116 1-188 isoform P01116-2 G12S): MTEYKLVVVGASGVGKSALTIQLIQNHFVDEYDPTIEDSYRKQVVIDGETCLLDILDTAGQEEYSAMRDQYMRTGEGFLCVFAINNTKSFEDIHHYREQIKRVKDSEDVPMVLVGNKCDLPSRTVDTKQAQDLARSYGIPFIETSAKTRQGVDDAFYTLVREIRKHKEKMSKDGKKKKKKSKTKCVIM
# ASSAY SUMMARY: Inhibition of KRas-mediated phosphorylation of ERK (HTRF), A549 cells
# Assay type: cell-based
# EXPERIMENTAL SETUP: HTRF pERK, 3 h incubation
EXPERIMENTAL READOUT: IC50 (nM)
A number alone suffices; assume nM.

Give recorded IC50 with KRas-mediated phosphorylation of ERK in A549 cells (Homo sapiens, UniProt P01116, G12S) for the following compound: `CCc1c(F)ccc2cc(O)cc(-c3ncc4c(N(C)CCNC(=O)n5cncn5)nc(OC[C@@]56CCCN5C[C@H](F)C6)nc4c3F)c12`
2730

Give IC50 (KRas-mediated phosphorylation of ERK in A549 cells (Homo sapiens, UniProt P01116, G12S)) of the following compound: CC(=O)N(C)C(=O)[C@H]1CCCN(c2nc(OC[C@@]34CCCN3C[C@H](F)C4)nc3c(F)c(-c4ccc(F)c5sc(N)c(C#N)c45)c(Cl)cc23)CC1 (atropisomer, axis not shown; (aS))
3

GET /values?readout=IC50&system=KRas-mediated phosphorylation of ERK in A549 cells (Homo sapiens, UniProt P01116, G12S)&item= `CN(CCCC(=O)Oc1ccc(F)cc1F)c1nc(OC[C@@]23CCCN2C[C@H](F)C3)nc2c(F)c(-c3ccc(F)c4sc(N)c(C#N)c34)c(Cl)cc12`
139

---

# TARGET UNDER TEST: KRas G12C (Homo sapiens, UniProt P01116, G12C)
# Construct: Biotinylated KRas (corresponding to amino acids 1-169, produced at Accelegan Inc.); biotin (biotinylated); purchased Accelegan Inc
# Sequence (P01116 1-169 isoform P01116-2 G12C): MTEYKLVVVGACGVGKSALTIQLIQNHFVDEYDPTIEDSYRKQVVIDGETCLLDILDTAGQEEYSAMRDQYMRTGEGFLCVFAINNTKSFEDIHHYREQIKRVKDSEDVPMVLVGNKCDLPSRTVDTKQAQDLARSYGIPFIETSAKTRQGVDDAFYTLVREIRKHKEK
# ASSAY SUMMARY: KRas binding assay, TR-FRET displacement of Cy5 labelled tracer
# EXPERIMENTAL SETUP: 60-minute incubation at room temperature, 1% DMSO, pH 7.5
EXPERIMENTAL READOUT: IC50 (nM)
Could you give me the number in nM? Just the number is fine.

# IC50 lookup, item `CN(C(=O)C1CCN(c2nc(OC[C@@]34CCCN3C[C@H](F)C4)nc3c(F)c(-c4ccc(F)c5sc(N)c(C#N)c45)c(Cl)cc23)CC1)c1cccnc1`
10

Report IC50 for `CCc1c(F)ccc2cc(O)cc(-c3ncc4c(NCCC(=O)n5ccc(C)n5)nc(OC[C@@]56CCCN5C[C@H](F)C6)nc4c3F)c12` please.
9

GET /values?readout=IC50&item= `N#Cc1c(N)sc2c(F)ccc(-c3c(Cl)cc4c(N5CCC(C(=O)Oc6ccc(F)cc6)CC5)nc(OC[C@@]56CCCN5C[C@H](F)C6)nc4c3F)c12`
9

Tell me the measured IC50 of `Cc1ccn(C(=O)CCCN(C)c2cc(O[C@@H](C)[C@@H]3CCCN3C)nc(-c3noc([C@@]4(C)CCCc5sc(N)c(C#N)c54)n3)n2)n1` , please.
10

Could you share which IC50 value was measured for `O=C(Oc1ccc(F)c(F)c1)[C@@H]1CCN(c2nc(OCC34CCCN3CCC4)nc3c(F)c(-c4cccc5cccc(F)c45)ncc23)C[C@@H]1O` ?
7290

What value of IC50 has been recorded for this entry: Cc1ccn(C(=O)C2CCCCCN(c3nc(OC[C@@]45CCCN4C[C@H](F)C5)nc4c(F)c(-c5ccc(F)c6sc(N)c(C#N)c56)c(Cl)cc34)C2)n1 (some centres unmarked)
29

Please give the measured IC50 for this compound: CCc1c(F)ccc2cc(O)cc(-c3ncc4c(N5CC[C@H]6[C@@H](C5)[C@H]6C(=O)n5ccc(C)n5)nc(OC[C@@]56CCCN5C[C@H](F)C6)nc4c3F)c12 (stereo in doubt) [Example 99]
58

Recorded IC50 for CCc1c(F)ccc2cc(O)cc(-c3ncc4c(N5CCC(CC(=O)n6ccc(C)n6)C5)nc(OC[C@@]56CCCN5C[C@H](F)C6)nc4c3F)c12 (some centres unmarked) , please?
137

Could you share which IC50 value was measured for `CCc1c(F)ccc2cc(O)cc(-c3ncc4c(N(C)CCCS(=O)(=O)n5cccn5)nc(OC[C@@]56CCCN5C[C@H](F)C6)nc4c3F)c12` ?
134

Given the compound `CN(CCCC(=O)N(C)c1cccnc1)c1nc(OC[C@@]23CCCN2C[C@H](F)C3)nc2c(F)c(-c3ccc(F)c4sc(N)c(C#N)c34)c(Cl)cc12` , what is its reported IC50?
5

Please report the recorded IC50 for `N#Cc1c(N)sc2c(F)ccc(-c3c(Cl)cc4c(N5CCN(S(=O)(=O)n6nccn6)CC5)nc(OC[C@@]56CCCN5C[C@H](F)C6)nc4c3F)c12` .
586

---

Kindly supply the reported log10 IC50 values for the records listed here.
# TARGET UNDER TEST: KRas-mediated phosphorylation of ERK in MKN1 cells (Homo sapiens, UniProt P01116)
# Construct: pERK HTRF read-out
# Sequence (P01116 1-188 isoform P01116-2): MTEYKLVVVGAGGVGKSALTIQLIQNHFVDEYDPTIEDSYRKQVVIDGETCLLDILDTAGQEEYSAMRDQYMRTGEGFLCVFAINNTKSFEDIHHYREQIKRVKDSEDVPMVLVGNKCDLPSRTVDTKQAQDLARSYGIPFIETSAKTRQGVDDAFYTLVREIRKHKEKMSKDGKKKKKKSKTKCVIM
# ASSAY SUMMARY: Inhibition of KRas-mediated phosphorylation of ERK (HTRF), MKN1 cells
# Format: cell-based
# EXPERIMENTAL SETUP: MKN1 cells (KRas WT); HTRF pERK; 3 h incubation
Transform log10 | Measure IC50 | Unit nM

Report log10 IC50 for CCc1c(F)ccc2cc(O)cc(-c3ncc4c(NCCCC(=O)N(C)C(C)=O)nc(OC[C@@]56CCCN5C[C@H](F)C6)nc4c3F)c12 [Example 261] please.
2.20

What measured log10 IC50 goes with CCc1c(F)ccc2cc(O)cc(-c3ncc4c(N5CC6(C(=O)n7ccc(C)n7)CCCC5C6)nc(OC[C@@]56CCCN5C[C@H](F)C6)nc4c3F)c12 (stereo partly shown) [Example 87] ?
3.61

Which log10 IC50 value is on record for CCc1c(F)ccc2cc(O)cc(-c3ncc4c(N(C)CCC(=O)N(C)C(C)=O)nc(OC[C@@]56CCCN5C[C@H](F)C6)nc4c3F)c12 [Example 273] ?
2.53

For the compound shown here, Cc1ccn(C(=O)CCNc2cc(O[C@@H](C)[C@@H]3CCCN3C)nc(-c3noc([C@@]4(C)CCCc5sc(N)c(C#N)c54)n3)n2)n1 [Example 318] , give the reported log10 IC50.
2.90

Please report the recorded log10 IC50 for CCN(C(C)=O)C(=O)CCCN(C)c1nc(OC[C@@]23CCCN2C[C@H](F)C3)nc2c(F)c(-c3ccc(F)c4sc(N)c(C#N)c34)c(Cl)cc12 [Example 291] .
2.13

---

# TARGET UNDER TEST: KRas G12C (Homo sapiens, UniProt P01116, G12C)
# Construct: Biotinylated KRas (corresponding to amino acids 1-169, produced at Accelegan Inc.); biotin (biotinylated); purchased Accelegan Inc
# ASSAY SUMMARY: KRas binding assay, TR-FRET displacement of Cy5 labelled tracer
# EXPERIMENTAL SETUP: 60-minute incubation at room temperature, 1% DMSO, pH 7.5
EXPERIMENTAL READOUT: log10(IC50) (log10 of the value in nM)
// do not treat as linear: log10 of IC50, unit nM

Give KRas G12C (Homo sapiens, UniProt P01116, G12C) log10(IC50) for CCc1c(F)ccc2cc(O)cc(-c3ncc4c(N5CCC(C(=O)N(C)c6ccccn6)CC5)nc(OC[C@@]56CCCN5C[C@H](F)C6)nc4c3F)c12 [Example 62]
2.79

Item: CCc1c(F)ccc2cc(O)cc(-c3ncc4c(N5CCC(C(=O)NC(C)=O)CC5)nc(OC[C@@]56CCCN5C[C@H](F)C6)nc4c3F)c12 [Example 212] Test system: KRas G12C (Homo sapiens, UniProt P01116, G12C) Read-out: log10(IC50) Value: ?
2.79

Lab note: need log10(IC50) with KRas G12C (Homo sapiens, UniProt P01116, G12C) for entry CCc1c(F)ccc2cc(O)cc(-c3ncc4c(N5CCN(C(=O)n6ccc(C)n6)C(C(F)(F)F)C5)nc(OC[C@@]56CCCN5C[C@H](F)C6)nc4c3F)c12 (stereo partly drawn) [Example 127] , please look it up.
2.35

Query for KRas G12C (Homo sapiens, UniProt P01116, G12C): what log10(IC50) does the record show for CN(CCCC(=O)Oc1ccccc1F)c1nc(OC[C@@]23CCCN2C[C@H](F)C3)nc2c(F)c(-c3ccc(F)c4sc(N)c(C#N)c34)c(Cl)cc12 [Example 218] ?
0.48

Enter reported log10(IC50) observed with KRas G12C (Homo sapiens, UniProt P01116, G12C) for CN(CCCC(=O)Nc1ccncc1)c1nc(OC[C@@]23CCCN2C[C@H](F)C3)nc2c(F)c(-c3ccc(F)c4sc(N)c(C#N)c34)c(Cl)cc12 [Example 269]
0.60

Form field: log10(IC50) recorded for CCc1c(F)ccc2cc(O)cc(-c3ncc4c(N5CCC(C(=O)OC)CC5)nc(OC[C@@]56CCCN5C[C@H](F)C6)nc4c3F)c12 [Example 16] with KRas G12C (Homo sapiens, UniProt P01116, G12C) (enter value)
1.73
